Every entry's value here was drawn from patent US20240270821A1.

Quick list: EC50 per entry.
- test system: hGLP-1R (Homo sapiens, UniProt P43220)
- Sequence (P43220 24-463): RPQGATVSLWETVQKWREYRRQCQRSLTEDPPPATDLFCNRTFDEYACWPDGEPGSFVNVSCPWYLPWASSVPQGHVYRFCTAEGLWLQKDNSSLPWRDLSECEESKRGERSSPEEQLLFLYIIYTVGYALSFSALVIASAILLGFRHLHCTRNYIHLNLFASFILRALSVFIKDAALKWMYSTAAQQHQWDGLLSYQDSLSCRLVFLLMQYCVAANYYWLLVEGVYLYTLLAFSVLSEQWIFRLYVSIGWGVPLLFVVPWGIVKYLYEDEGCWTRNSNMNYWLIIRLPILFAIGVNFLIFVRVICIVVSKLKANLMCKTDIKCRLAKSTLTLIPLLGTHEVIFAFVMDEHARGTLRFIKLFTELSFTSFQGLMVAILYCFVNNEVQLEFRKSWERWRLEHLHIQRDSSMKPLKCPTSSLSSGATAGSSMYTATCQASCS
- assay name: Functional cAMP activation in the presence of 0.1% casein (no HSA);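 further: intracellular cAMP rise after 30 min at 37 °C read by HTRF, normalized between buffer only (0%) and maximal control ligand (100%), four-parameter variable-slope fit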
- Assay type: cell-based
- condition parameters: in the presence of 0.1% casein (no HSA); geometric mean; read-out: Relative cAMP EC50, hGLP-1R
Starred links: 1 amine or outer side, 2 acyl side, 3 side chain; linkers in the order of their positions; H or OH if unused. Non-standard residues stand in square brackets, D forms with d. Groups on a side chain read outwards from the residue. *: point of attachment. C20 diacid = O=C(O)CCCCCCCCCCCCCCCCCCC(=O)*; C18 diacid = O=C(O)CCCCCCCCCCCCCCCCC(=O)*; αMePhe(2-F) = C[C@](N)(Cc1ccccc1F)C(=O)O; γGlu = O=C(O)[C@H](CCC(=O)[*:2])N[*:1]; αMe4Pal = C[C@](N)(Cc1ccncc1)C(=O)O; αMeY = C[C@](N)(Cc1ccc(O)cc1)C(=O)O; 4Pal = N[C@@H](Cc1ccncc1)C(=O)O; αMeL = CC(C)C[C@](C)(N)C(=O)O; αMeS = C[C@](N)(CO)C(=O)O; Orn = NCCC[C@H](N)C(=O)O; AEEA = NCCOCCOCC(=O)O; Aib = CC(C)(N)C(=O)O
Dear colleague, please return just the value in nM, with no unit written.

The cases that follow already have their EC50 on record.
H-Y[Aib]QGT[αMePhe(2-F)]TSDYSKLLDEIAQK([AEEA-γGlu-C20 diacid])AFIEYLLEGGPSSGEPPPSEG-NH2 [Example 303] :: 1.13
H-Y[Aib]QGT[αMePhe(2-F)]TSD[4Pal][αMeS]I[αMeL]LD[Orn]K([AEEA-γGlu-C18 diacid])AQ[αMe4Pal]EFI[dE][αMeY]LVEGGPSSGEPPPEGE-NH2 [Example 1159] :: 0.45
H-Y[Aib]QGTFTSDYSI[αMeL]LDKQAAK([AEEA-AEEA-γGlu-C20 diacid])QFVEWLIA[Aib]GPSSGEPPPSEG-NH2 [Example 326] :: 0.555
H-Y[Aib]QGTFTSDFS[Orn][αMeL]LDKK([AEEA-AEEA-γGlu-C18 diacid])AQ[Aib]AFIEYLLE[dA]GPSSGHPPPSGS-NH2 [Example 253] :: 2.2

Assign EC50 to the following record: H-Y[Aib]QGTFTSD[4Pal]SR[αMeL]LDKK([γGlu-γGlu-C18 diacid])AQ[αMe4Pal]AFIE[αMe4Pal]LIEGGPSSGAPPPSGS-NH2 [Example 953]
2.63

Assign EC50 to the following record: H-Y[Aib]QGTFTSDFSK[αMeL]LDKK([AEEA-γGlu-C20 diacid])AQ[Aib]AFIEYLLAGGPSSGEPPPGGS-NH2 [Example 9]
1.61

Assign EC50 to the following record: H-Y[Aib]QGTFTSD[4Pal]SQ[αMeL]LDKK([AEEA-γGlu-C18 diacid])AQ[Aib]AFIE[αMeY]LLEGGPSSGAPPPSGS-NH2 [Example 910]
1.49

---

- test system: human GcgR (Homo sapiens, UniProt P47871)
- Sequence (P47871 26-477): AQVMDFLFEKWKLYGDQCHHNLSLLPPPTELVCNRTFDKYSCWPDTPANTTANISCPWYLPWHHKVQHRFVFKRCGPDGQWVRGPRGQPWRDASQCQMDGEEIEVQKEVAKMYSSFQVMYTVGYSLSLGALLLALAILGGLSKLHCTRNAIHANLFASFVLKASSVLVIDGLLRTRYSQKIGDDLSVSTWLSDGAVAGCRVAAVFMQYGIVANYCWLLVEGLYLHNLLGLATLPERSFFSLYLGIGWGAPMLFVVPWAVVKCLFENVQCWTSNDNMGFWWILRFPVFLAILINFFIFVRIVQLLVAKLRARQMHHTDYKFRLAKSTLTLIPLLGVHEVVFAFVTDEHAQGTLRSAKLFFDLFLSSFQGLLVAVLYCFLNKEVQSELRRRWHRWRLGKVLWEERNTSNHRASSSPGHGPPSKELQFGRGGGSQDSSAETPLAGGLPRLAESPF
- assay name: Functional cAMP activity in the presence of 1% HSA
- Format: cell-based
- condition parameters: read-out: cAMP Rel EC50, hGcgR
Starred links: 1 amine or outer side, 2 acyl side, 3 side chain; linkers in the order of their positions; H or OH if unused. Non-standard residues stand in square brackets, D forms with d. Groups on a side chain read outwards from the residue. No end group written: not given here. *: point of attachment. C20 diacid = O=C(O)CCCCCCCCCCCCCCCCCCC(=O)*; C18 diacid = O=C(O)CCCCCCCCCCCCCCCCC(=O)*; αMePhe(2-F) = C[C@](N)(Cc1ccccc1F)C(=O)O; γGlu = O=C(O)[C@H](CCC(=O)[*:2])N[*:1]; αMe4Pal = C[C@](N)(Cc1ccncc1)C(=O)O; αMeY = C[C@](N)(Cc1ccc(O)cc1)C(=O)O; 4Pal = N[C@@H](Cc1ccncc1)C(=O)O; αMeL = CC(C)C[C@](C)(N)C(=O)O; αMeS = C[C@](N)(CO)C(=O)O; Orn = NCCC[C@H](N)C(=O)O; AEEA = NCCOCCOCC(=O)O; Aib = CC(C)(N)C(=O)O
property label: EC50 (nM)
Dear colleague, please return just the value in nM, with no unit written.

H-Y[Aib]QGTFTSD[4Pal]SQ[αMeL]LD[Orn]K([AEEA-γGlu-C18 diacid])AQ[αMe4Pal]QFIE[αMeY]LIEGGPSSGAPPPSGS-NH2 [Example 857] :: 1050
H-Y[Aib]QGTFTSDYSI[αMeL]LDKK([AEEA-γGlu-C20 diacid])AQRAFIEYLLEGGPSSGEPPPSEG-NH2 [Example 289] :: 1750
H-Y[Aib]QGT[αMePhe(2-F)]TSD[4Pal][αMeS]I[αMeL]LD[Orn]K([γGlu-γGlu-C18 diacid])AQ[αMe4Pal]EFI[dE][αMeY]LVEGGPSSGAPPPSGS-NH2 [Example 696] :: 173
H-Y[Aib]QGTFTSDYSK[αMeL]LDKK([AEEA-γGlu-C20 diacid])AQQAFIEYLIAGGPSSGAPPPSSE-NH2 [Example 322] :: 2620

Assign EC50 to the following record: Y[Aib]QGTFTSDFS[Orn][αMeL]LDKK([AEEA-γGlu-γGlu-C18 diacid])AQ[Aib]AFIEYLLAGGPSSGEPPPSGS-NH2 [Example 153]
1210

Assign EC50 to the following record: H-Y[Aib]QGTFTSDFSK[αMeL]LDKK([AEEA-γGlu-C20 diacid])AQ[Aib]AFIEYLLEGAPSSGAPPPSEG-NH2 [Example 47]
2140

Assign EC50 to the following record: H-Y[Aib]QGTFTSDFS[Orn][αMeL]LDKK([AEEA-AEEA-γGlu-C18 diacid])AQ[Aib]AFIEYLLE[Aib]GPSSGAPPPSGT-NH2 [Example 165]
1250
